biological target: Glucose-6-phosphate 1-dehydrogenase (Homo sapiens); test: human G6PD enzyme inhibitors, dose response, selectivity assay for P. falciparum G6PD inhibitor project, biochemical, fluorescence (AID 504792); assay type: functional
Sequence (P11413 whole entry): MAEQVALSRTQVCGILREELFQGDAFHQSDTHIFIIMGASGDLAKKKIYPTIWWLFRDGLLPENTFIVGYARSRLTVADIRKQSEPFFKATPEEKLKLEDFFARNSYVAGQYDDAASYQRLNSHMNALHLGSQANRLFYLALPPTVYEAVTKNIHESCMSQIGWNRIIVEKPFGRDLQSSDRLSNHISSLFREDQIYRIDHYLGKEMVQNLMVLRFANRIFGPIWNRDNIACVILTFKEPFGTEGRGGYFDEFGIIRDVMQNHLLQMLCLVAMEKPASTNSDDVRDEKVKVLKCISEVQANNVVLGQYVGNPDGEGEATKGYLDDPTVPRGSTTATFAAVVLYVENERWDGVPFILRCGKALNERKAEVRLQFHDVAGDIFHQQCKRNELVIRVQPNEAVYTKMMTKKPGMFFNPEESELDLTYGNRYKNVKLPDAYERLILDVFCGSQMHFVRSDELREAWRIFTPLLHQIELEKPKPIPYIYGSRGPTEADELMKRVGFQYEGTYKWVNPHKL
Active and inactive are the calls of the source.
Possible outcomes: Yes = active, No = inactive

1) Cn1cc(S(=O)(=O)CC(=O)N2CCc3ccccc32)c2ccccc21 : No
2) CC(=O)Nc1ccc2sn(-c3ccccc3)c(=O)c2c1 : Yes
3) CN1CCc2cccc3c2[C@@H]1Cc1ccc(O)c(O)c1-3 : No
4) CC1=C(n2nnc([N+](=O)[O-])n2)C(c2cccnc2)C(C#N)=C(N)O1 (centres undefined) : No

###

molecular target: UniProt P38532; experiment: HSF1 potentiators in luciferase reporter cells, confirmation, cell-based, NIH3T3, luminescence, dose retest (AID 435004); type: functional;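 note: stress induced by proteasome inhibitor MG132 added 30 min after compound; luciferase reporter driven by HSF1 response element in NIH3T3 cells; actives raise luminescence as potentiators of the MG132 stress response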
Sequence (P38532 whole entry): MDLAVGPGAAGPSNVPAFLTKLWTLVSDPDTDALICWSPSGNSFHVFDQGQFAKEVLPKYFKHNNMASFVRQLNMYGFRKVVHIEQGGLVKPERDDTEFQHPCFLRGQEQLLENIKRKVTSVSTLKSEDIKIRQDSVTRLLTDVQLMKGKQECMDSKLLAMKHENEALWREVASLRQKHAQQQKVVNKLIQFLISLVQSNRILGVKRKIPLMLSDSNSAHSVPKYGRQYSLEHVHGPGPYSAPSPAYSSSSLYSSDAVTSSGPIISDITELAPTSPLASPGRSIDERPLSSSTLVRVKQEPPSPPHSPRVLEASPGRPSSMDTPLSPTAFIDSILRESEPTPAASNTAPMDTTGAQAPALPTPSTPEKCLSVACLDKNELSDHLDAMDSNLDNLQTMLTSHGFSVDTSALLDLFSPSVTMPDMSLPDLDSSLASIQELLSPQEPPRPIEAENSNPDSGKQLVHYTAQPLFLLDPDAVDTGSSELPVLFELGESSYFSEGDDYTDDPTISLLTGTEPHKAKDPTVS
Calls of active or inactive are those of the source.
Possible outcomes: true (1) = active, false (0) = inactive

1) COc1ccc(-c2nnc(Nc3ccc(CC(N)=O)cc3)c3ccccc23)cc1 : false (0)
2) COc1ccc(NC(=O)C2CC(=O)N=C(Nc3cccc(C)c3)N2)cc1 (configuration not stated) : false (0)
3) CC[C@@H]1[C@H]2CCCC(=O)N3CC[C@@H](C[C@@H]1Nc1ccccc1)[C@@H]23 : false (0)
4) O=C(NC1C2CC3CC(C2)CC1C3)C1CC1 (configuration not stated) : false (0)
5) O=C(Oc1cccc2cccnc12)c1ccc(Br)o1 : false (0)
6) CC(C)(C)NC(=O)c1ccc2c(c1)N(CC(=O)N1CCCCC1)C(=O)C(C)(C)O2 : false (0)
7) Cc1ccccc1NC(=O)C1CCCN(C(=O)NCc2ccccc2)C1 (configuration not stated) : false (0)
8) O=C(CCN1C(=O)c2ccccc2C1=O)C1=NN[C@@H]2C(=O)N(c3ccc(F)cc3)C(=O)[C@H]12 : false (0)
9) N#Cc1cc(Oc2cccc3cccnc23)c(-n2nnc3ccccc32)cc1C#N : false (0)
10) COC(=O)c1cc(OC)c(OC)cc1N=C(S)N1CCCC1 : false (0)
11) CCCCOC(=O)CCc1c(C)n[nH]c1C : false (0)
12) CC(CCc1ccccc1)NC(=O)CN1CCc2ccccc2C1 (configuration not stated) : false (0)
13) COc1ccc(S(=O)(=O)N(C)CC(=O)N2CCC(C(N)=O)CC2)cc1Cl : false (0)
14) Clc1ccc(CCNc2nc3ccccc3n3nnnc23)cc1 : false (0)
15) COc1ccc(C(=O)Cn2c(C)nc([N+](=O)[O-])c2Br)cc1 : true (1)
16) CCCCc1nnc(NC(=O)C(C)Sc2nc(C)cc(O)n2)s1 (configuration not stated) : false (0)
17) O=C(Nc1ccc(Br)cn1)c1ccc([N+](=O)[O-])o1 : true (1)
18) CN1CCN(NC(=O)/C=C/c2ccc(Br)cc2)CC1 : true (1)
19) CCN(Cc1ccccc1)S(=O)(=O)c1cc(C(=O)NCC2CCCCC2)ccc1OC : false (0)
20) Cc1cc(C)cc(NC(=O)CN(C)S(=O)(=O)c2c[nH]cn2)c1 : false (0)
21) Nc1cnn(Cc2ccc(F)cc2)c1 : false (0)
22) O=C(/C=C/c1ccc(Cl)cc1Cl)N(Cc1ccccc1)C1CCS(=O)(=O)C1 (configuration not stated) : false (0)

Source of measurements: ChEMBL document CHEMBL1201862
